# assayed_target: recombinant human CCR5 receptor (Homo sapiens)
# Sequence (P51681 whole entry): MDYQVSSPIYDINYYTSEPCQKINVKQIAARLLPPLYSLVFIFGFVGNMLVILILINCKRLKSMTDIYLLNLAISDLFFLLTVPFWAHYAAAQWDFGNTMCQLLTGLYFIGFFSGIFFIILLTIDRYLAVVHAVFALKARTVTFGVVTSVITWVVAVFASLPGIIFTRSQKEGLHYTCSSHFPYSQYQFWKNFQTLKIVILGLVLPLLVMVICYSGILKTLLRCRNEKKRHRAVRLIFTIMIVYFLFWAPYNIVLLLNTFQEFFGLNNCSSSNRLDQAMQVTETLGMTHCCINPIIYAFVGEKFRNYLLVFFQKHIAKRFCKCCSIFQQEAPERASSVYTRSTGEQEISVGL
# assay_notes: MIP-1α radioligand binding assay (scintillation proximity), CHO cell membranes
# test_parameters: displacement of 0.1 nM iodinated MIP-1α; negative log10 of IC50; average if tested more than once
# Experimental: The ability of compounds to inhibit the binding of MIP-1α was assessed by an in vitro radioligand binding assay. Membranes were prepared from Chinese hamster ovary cells which expressed the recombinant human CCR5 receptor. These membranes were incubated with 0.1 nM iodinated MIP-1α, scintillation proximity beads and various concentrations of the compounds of the invention in 96-well plates. The amount of iodinated MIP-1α bound to the receptor was determined by scintillation counting. […]
measure_name: IC50 (nM)
Please reply with the bare figure in nM and do not write the unit itself.

Query: Fill blank: measured IC50 of the molecule CCS(=O)(=O)N1CCN(C(CCN2CCC(CCCc3ccccc3)CC2)c2ccccc2)CC1 (stereo not shown) [Compound 3] is ____.
Response: 97.7
